target: D(3) dopamine receptor (Homo sapiens); experiment: Antagonist activity at SNAP-tagged human D3R receptor transfected in HEK293T cells coexpressing wild type Galpha-oA, venus-tagged Gbeta-1 (156 to 239 residues), venus-tagged Ggamma2 (1 to 155 residues) and Rluc8 fused masGRK3ct assessed as Galpha-oA activation using coelenterazine as substrate incubated for 40 mins in presence of quinpirole by BRET based GPA assay; type: functional, cell-based; conditions: hek293t
Sequence (P35462 whole entry, the tested form may be a part): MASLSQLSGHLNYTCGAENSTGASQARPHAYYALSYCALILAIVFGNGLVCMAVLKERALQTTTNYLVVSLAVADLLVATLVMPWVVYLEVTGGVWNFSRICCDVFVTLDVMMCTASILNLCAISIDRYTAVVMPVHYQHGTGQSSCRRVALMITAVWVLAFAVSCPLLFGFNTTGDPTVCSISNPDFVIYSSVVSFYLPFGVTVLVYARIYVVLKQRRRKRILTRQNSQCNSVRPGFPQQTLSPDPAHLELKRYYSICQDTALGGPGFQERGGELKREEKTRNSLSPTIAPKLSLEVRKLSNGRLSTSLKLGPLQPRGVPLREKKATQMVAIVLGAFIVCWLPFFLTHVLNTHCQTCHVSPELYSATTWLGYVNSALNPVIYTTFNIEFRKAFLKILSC
READOUT LABEL: EC50 (nM)
# value in nM; strip the unit string

# input For the molecule CCc1cc(Cl)c(OC)c(N2CCN(C[C@@H]3C[C@@H](O)CN3CCC(C(=O)N(C)C)(c3ccccc3)c3ccccc3)CC2)c1 , give its measured EC50 value.
# output 2960

---

target: Mu-type opioid receptor (Homo sapiens, UniProt P35372)
Sequence (P35372 whole entry): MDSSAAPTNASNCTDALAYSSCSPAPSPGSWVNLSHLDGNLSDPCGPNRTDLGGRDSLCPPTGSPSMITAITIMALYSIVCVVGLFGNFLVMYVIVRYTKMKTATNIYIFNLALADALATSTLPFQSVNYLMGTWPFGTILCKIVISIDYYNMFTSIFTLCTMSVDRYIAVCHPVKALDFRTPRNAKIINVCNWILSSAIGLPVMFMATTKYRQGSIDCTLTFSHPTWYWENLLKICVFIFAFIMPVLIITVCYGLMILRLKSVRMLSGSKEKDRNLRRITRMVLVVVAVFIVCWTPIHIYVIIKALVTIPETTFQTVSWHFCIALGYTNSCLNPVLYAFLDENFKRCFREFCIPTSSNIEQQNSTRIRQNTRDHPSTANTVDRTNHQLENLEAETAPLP
# log10 Ki annotations
Hi team, quick reminder: these entries are log10 of Ki (nM).

Record excerpt, results attached:
COMPOUND: CN(C)C(=O)C(CCN1C[C@H](F)C[C@H]1C(=O)NCCCCN1CCN(c2cccc(C(F)(F)F)n2)CC1)(c1ccccc1)c1ccccc1
READOUT LABEL: log10 Ki
QUANTITATIVE RESULT: 2.28
--
COMPOUND: Clc1ccc([C@@H]2C[C@H]2NCCC2(c3ccccn3)CCOCC2)cc1 (relative stereo)
READOUT LABEL: log10 Ki
QUANTITATIVE RESULT: 3.20
--
COMPOUND: FC(F)(F)c1cccc(N2CCN(CCCOC3(c4ccccn4)CCOCC3)CC2)n1
READOUT LABEL: log10 Ki
QUANTITATIVE RESULT: 3.32

API: the following record is the query input.
# input Please respond with reported log10 Ki (system Mu-type opioid receptor (Homo sapiens, UniProt P35372)) for CN(C)C(=O)C(CCN1C[C@H](O)C[C@H]1CN1CCN(c2cccc(Cl)c2Cl)CC1)(c1ccccc1)c1ccccc1 .
# output 2.72

---

Recorded below: Ki, system Mu-type opioid receptor (Homo sapiens).
Give just the numeric value; nM need not be written.

Please review the following examples before continuing.
COMPOUND: CC1CCC(CN2CCN(c3cccc(Cl)c3Cl)CC2)CN1CCC(C(=O)N(C)C)(c1ccccc1)c1ccccc1 (configuration not stated)
READOUT LABEL: Ki
QUANTITATIVE RESULT: 867
--
COMPOUND: Clc1cccc(N2CCN(CCCOC3(c4ccccn4)CCOCC3)CC2)c1Cl
READOUT LABEL: Ki
QUANTITATIVE RESULT: 1750
--
COMPOUND: Fc1cncc(CNCC[C@@]2(c3ccccn3)CCOC3(CCCC3)C2)c1
READOUT LABEL: Ki
QUANTITATIVE RESULT: 54.7
--
COMPOUND: CN(C)C(=O)C(CCN1CCN(c2nsc3ccccc23)CC1)(c1ccccc1)c1ccccc1
READOUT LABEL: Ki
QUANTITATIVE RESULT: 0.364
--
COMPOUND: CN(C)C(=O)C(CCN1C[C@H](F)C[C@H]1C(=O)NCCCCN1CCN(c2cccc(Cl)c2Cl)CC1)(c1ccccc1)c1ccccc1
READOUT LABEL: Ki
QUANTITATIVE RESULT: 787
--
COMPOUND: CN(C)C(=O)C(CCN1CCC(CCN2CCN(c3cccc(Cl)c3Cl)CC2)C1)(c1ccccc1)c1ccccc1 (configuration not stated)
READOUT LABEL: Ki
QUANTITATIVE RESULT: 23.5

Now consider the entry below.
# input Output reported Ki of the compound FC(F)(F)c1cccc(N2CCN(CCC3(c4ccccn4)CCOC4(CCCC4)C3)CC2)n1 (configuration not stated) on Mu-type opioid receptor (Homo sapiens).
# output 166
